These measurements were taken from paper PMC4401541.

biological target: MDM2-N (Homo sapiens, UniProt Q00987); assay: Competitive capillary electrophoresis (CE) assay, compound vs fluorescently labelled p53 peptide (p53-F); type: binding; conditions: read-out: CE % inhibition at 300 μM
inhibition at 300 µM below 40% gives condition not met; inhibition at 300 µM at or above it gives condition met.

compound	discreteLabel
Nc1ccc(Nc2ccccc2)cc1 [Compound 44]	condition not met
O=C1Cc2ccccc2N1 [Compound 40]	condition not met
O=C(NCc1ccccc1)N(c1ccccc1)c1ccccc1 [Compound 19]	condition met

Req: Given the entry Oc1cccc(Nc2ccccc2)c1 [Compound 41] , answer whether its inhibition at 300 µM meets or surpasses 40%.
Resp: condition met

Req: Is the recorded value of inhibition at 300 µM equal to or greater than 40% for this compound? Oc1ccc(Nc2ccccc2)cc1 [Compound 42]
Resp: condition met

Req: Quick check: does c1ccc(Nc2ccccc2)cc1 [Compound 43] have inhibition at 300 µM greater than or equal to 40%?
Resp: condition not met

---

biological target: UniProt:Q00987; test: Fluorescence polarization (FP) competition assay with p53-F; format: binding; settings: read-out: FP % inhibition at 700 μM; compound 700 μM; MDM2-N 500 nM; p53-F 2 nM
Reported inhibition at 700 µM values follow for various compounds
Output should be the measured figure followed by the unit it is expressed in.

Solved entries:
compound	result
O=C1Cc2ccccc2N1 [Compound 40]	8%
O=C1N[C@@](O)(c2ccccc2)c2ccccc21 [Compound 39]	13%
Oc1cccc(Nc2ccccc2)c1 [Compound 41]	31%
O=C(NCc1ccccc1)N(c1ccccc1)c1ccccc1 [Compound 19]	18%
Nc1ccc(Nc2ccccc2)cc1 [Compound 44]	8%
c1ccc(Nc2ccccc2)cc1 [Compound 43]	33%

Continue with the compound presented below.
The compound listed as Oc1ccc(Nc2ccccc2)cc1 [Compound 42] shows inhibition at 700 µM equal to 60%

---

assay: Solubility of the fragments in assay buffer; type: physicochemical; details: aqueous buffer, read-out: Estimated solubility limit
reportedProperty: solubility

// known answers, use as guide
O=C1Cc2ccccc2N1 > 2000 µM
Oc1cccc(Nc2ccccc2)c1 250 to 500 µM

GET /value?item= c1ccc(Nc2ccccc2)cc1 &field=solubility returns 250 to 500 µM

What the record says about Oc1ccc(Nc2ccccc2)cc1 : solubility is 250 to 500 µM

Lookup result for O=C(O)c1ccccc1Nc1ccccc1 ; measured solubility: > 1000 µM

Entry Nc1ccc(Nc2ccccc2)cc1 , solubility reported as 62.5 to 125 µM
